target: N CTD (SARS-CoV-2, UniProt P0DTC9 248-369); assay: fluorescence polarization
measuredQuantity: Kd (µM)

UUUCACCUCCCUUUCAGUUU (ssRNA) [20-nt ssRNA]    13
